SYSTEM_NAME: Melanocortin receptor 5 (Homo sapiens, UniProt P33032)
Sequence (P33032 whole entry): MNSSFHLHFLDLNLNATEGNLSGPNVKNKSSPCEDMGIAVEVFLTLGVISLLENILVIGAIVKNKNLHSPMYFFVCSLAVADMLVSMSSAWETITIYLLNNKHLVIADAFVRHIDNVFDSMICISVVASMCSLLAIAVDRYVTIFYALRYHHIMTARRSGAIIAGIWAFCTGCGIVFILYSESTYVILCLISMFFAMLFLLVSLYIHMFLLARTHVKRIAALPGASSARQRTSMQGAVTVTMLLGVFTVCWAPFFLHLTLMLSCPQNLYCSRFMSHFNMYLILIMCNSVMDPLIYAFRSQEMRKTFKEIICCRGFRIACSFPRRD
METHOD: Agonist activity at human recombinant MC5 receptor expressed in HEK293 cells assessed as cAMP accumulation by beta lactamase reporter gene assay
RESULT_TYPE: EC50 (µM)

[[record]]
chemical_string = "CCN1C[C@@H](C(=O)N2C[C@@H](C)[C@](O)(c3cccc(F)c3)[C@@H](C)C2)[C@H](c2ccc(F)cc2F)C1"
result_type = "EC50"
test_value = 6.41


1: C[C@@H]1CN(C(=O)[C@H]2CN(c3ccccn3)C[C@@H]2c2ccc(F)cc2F)C[C@H](C)[C@@]1(O)c1ccccc1
2: C[C@@H]1CN(C(=O)[C@@H]2CN(C(C)(C)C)C[C@H]2c2ccc(F)cc2F)C[C@H](C)[C@@]1(O)c1ccc(F)cc1.Cl
Task: Just tell me: smaller EC50 value, 1 or 2 ? Record your answer as the label of the chosen record.
Result: 1

I: C[C@@H]1CN(C(=O)[C@@H]2CN(C(C)(C)C)C[C@H]2c2ccc(F)cc2F)C[C@H](C)[C@@]1(O)c1cccc(F)c1
II: C[C@@H]1CN(C(=O)[C@@H]2CN(C(C)(C)C)C[C@H]2c2ccc(F)cc2F)C[C@H](C)[C@@]1(O)c1ccc(Cl)cc1
Task: Name the one with the greater EC50 value, either I or II as given. Record your answer as the label of the chosen record.
Result: II
(II: 5.19 µM, I: 1.8 µM)
